Molecular target: T1, human ICOS, full-length, expressed on transfected Expi293 cells (human, UniProt Q9Y6W8 21-199)
T1 construct: whole, on cells
T1 sequence (looked up): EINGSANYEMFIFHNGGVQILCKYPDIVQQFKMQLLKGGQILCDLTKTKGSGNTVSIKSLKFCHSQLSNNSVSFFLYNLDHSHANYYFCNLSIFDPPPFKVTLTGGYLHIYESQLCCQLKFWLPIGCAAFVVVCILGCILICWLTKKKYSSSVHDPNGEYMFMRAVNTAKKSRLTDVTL
Test: flow cytometry, 100 nM, Expi293 cells with human ICOS
Recorded measurements of MFI ratio to WT (ΔWT), one per entry
property-measured: MFI ratio to WT (ΔWT)

>>> result("variant ICOSL IgV-Fc fusion N52R/N57L/Q100S (Fc fusion) DTQEKEVRAMVGSDVELSCACPEGSRFDLNDVYVYWQTSESKTVVTYHIPQRSSLELVDSRYRNRALMSPAGMLRGDFSLRLFNVTPQDEQKFHCLVLSSSLGFQEVLSVEVTLHVAANFSVGSGGGGSEPKSSDKTHTCPPCPAPEAEGAPSVFLFPPKPKDTLMISRTPEVTCVVVDVSHEDPEVKFNWYVDGVEVHNAKTKPREEQYNSTYRVVSVLTVLHQDWLNGKEYKCKVSNKALPAPIEKTISKAKGQPREPQVYTLPPSREEMTKNQVSLTCLVKGFYPSDIAVEWESNGQPENNYKTTPPVLDSDGSFFLYSKLTVDKSRWQQGNVFSCSVMHEALHNHYTQKSLSLSPG")
"1.09 fold"
>>> result("variant ICOSL IgV-Fc fusion N52R/N57Y/Q100S (Fc fusion) DTQEKEVRAMVGSDVELSCACPEGSRFDLNDVYVYWQTSESKTVVTYHIPQRSSLEYVDSRYRNRALMSPAGMLRGDFSLRLFNVTPQDEQKFHCLVLSSSLGFQEVLSVEVTLHVAANFSVGSGGGGSEPKSSDKTHTCPPCPAPEAEGAPSVFLFPPKPKDTLMISRTPEVTCVVVDVSHEDPEVKFNWYVDGVEVHNAKTKPREEQYNSTYRVVSVLTVLHQDWLNGKEYKCKVSNKALPAPIEKTISKAKGQPREPQVYTLPPSREEMTKNQVSLTCLVKGFYPSDIAVEWESNGQPENNYKTTPPVLDSDGSFFLYSKLTVDKSRWQQGNVFSCSVMHEALHNHYTQKSLSLSPG")
"1.08 fold"
